Test system: Staphylococcus aureus S13E
Assay: MIC, standard agar-dilution assay
Format: cell-based
QUANTITY MEASURED: MIC (µg/mL)
Dear colleague, please return just the value in µg/mL, with no unit written.

Look over these answered cases.
INSERT INTO assay_data (compound, study_system, quantity_measured, reported) VALUES
  ('CCC1OC(=O)CC(O)C(C)C(OC2OC(C)C(O)C(N(C)C)C2O)C(CCOc2ccccc2)CC(C)C(=O)C=CC(C)=CC1COC1OC(C)C(OC(C)=O)C(OC)C1OC (centres unmarked)', 'Staphylococcus aureus S13E', 'MIC', 2),
  ('CCC1OC(=O)CC(O)C(C)C(OC2OC(C)C(O)C(N(C)C)C2O)C(CCOc2ccccc2)CC(C)C(=O)C=CC(C)=CC1COC1OC(C)C(OC(=O)CNCc2ccccc2)C(OC)C1OC (centres unmarked)', 'Staphylococcus aureus S13E', 'MIC', 2);

// output MIC; input CCC1OC(=O)CC(O)C(C)C(OC2OC(C)C(O)C(N(C)C)C2O)C(CCOc2ccccc2)CC(C)C(=O)C=CC(C)=CC1COC1OC(C)C(OC(=O)Cc2ccccc2)C(OC)C1OC (centres unmarked) ; system Staphylococcus aureus S13E
2

// output MIC; input CCC1OC(=O)CC(O)C(C)C(OC2OC(C)C(O)C(N(C)C)C2O)C(CCOc2ccccc2)CC(C)C(=O)C=CC(C)=CC1COC1OC(C)C(OC(=O)CN2CCCC2)C(OC)C1OC (centres unmarked) ; system Staphylococcus aureus S13E
1

// output MIC; input CCC1OC(=O)CC(O)C(C)C(OC2OC(C)C(O)C(N(C)C)C2O)C(CCOc2ccccc2)CC(C)C(=O)C=CC(C)=CC1COC1OC(C)C(OC(=O)CN2CCN(C)CC2)C(OC)C1OC (centres unmarked) ; system Staphylococcus aureus S13E
4
